# assay-notes: Half-wave potentials by cyclic voltammetry in acetonitrile
# Format: physicochemical
# measurement-parameters: first one-electron reduction, rt, Pt electrode, 0.1 M tetraethylammonium tetrafluoroborate, vs non-aqueous Ag/Ag+, given as negative of potential
−E^I 1/2 under 700 mV gets 1, anything at or over 700 mV gets 0.

O=C1C=C(Nc2ccccc2)C(=O)C(C(=O)c2ccco2)=C1Nc1ccccc1 | 1
COc1cc(NC2=CC(=O)C(Nc3cc(OC)c(OC)c(OC)c3)=C(C(=O)c3ccco3)C2=O)cc(OC)c1OC | 0
COc1cc(C(=O)C2=C(Nc3ccccc3)C(=O)C=C(Nc3ccccc3)C2=O)cc(OC)c1OC | 1

###

# assay-notes: Half-wave potentials by cyclic voltammetry in acetonitrile
# Assay type: physicochemical
# measurement-parameters: second one-electron reduction, rt, Pt electrode, vs non-aqueous Ag/Ag+, given as negative of potential
readout-name: −E^II 1/2 (mV)

COc1cc(NC2=CC(=O)C(Nc3cc(OC)c(OC)c(OC)c3)=C(C(=O)c3cccs3)C2=O)cc(OC)c1OC [2m] | 1010
CC(=O)C1=C(Nc2ccccc2)C(=O)C=C(Nc2ccccc2)C1=O [2a] | 1170
COc1ccc(C(=O)C2=C(Nc3ccccc3)C(=O)C=C(Nc3ccccc3)C2=O)cc1OC [2e] | 1140
CCCC(=O)C1=C(Nc2ccccc2)C(=O)C=C(Nc2ccccc2)C1=O [2b] | 1150
COc1cc(C(=O)C2=C(Nc3ccccc3)C(=O)C=C(Nc3ccccc3)C2=O)cc(OC)c1OC [2f] | 1120
O=C1C=C(Nc2ccc(F)cc2)C(=O)C(C(=O)c2ccco2)=C1Nc1ccc(F)cc1 [2p] | 950
COc1cc(NC2=CC(=O)C(Nc3cc(OC)c(OC)c(OC)c3)=C(C(=O)c3ccccc3)C2=O)cc(OC)c1OC [2i] | 950
COc1ccc(C(=O)C2=C(Nc3ccc(F)cc3)C(=O)C=C(Nc3ccc(F)cc3)C2=O)cc1 [2ñ] | 860

###

# Test system: HEK-293 kidney cells
# assay-notes: MTT cytotoxicity assay, HEK-293
# Type: cell-based
# measurement-parameters: Homo sapiens, HEK293, non-tumor cells, 48 h incubation (b12: 72 h), n = 3, read-out: IC50 ± SEM HEK-293
readout-name: IC50

COc1cc(C(=O)C2=C(Nc3ccccc3)C(=O)C=C(Nc3ccccc3)C2=O)cc(OC)c1OC | 85.8 µM
CC(=O)C1=C(Nc2ccccc2)C(=O)C=C(Nc2ccccc2)C1=O | > 100 µM
O=C1C=C(Nc2ccc(F)cc2)C(=O)C(C(=O)c2ccco2)=C1Nc1ccc(F)cc1 | 72.8 µM
COc1ccc(C(=O)C2=C(Nc3cc(OC)c(OC)c(OC)c3)C(=O)C=C(Nc3cc(OC)c(OC)c(OC)c3)C2=O)cc1 | 56.9 µM
COc1ccc(C(=O)C2=C(Nc3ccc(F)cc3)C(=O)C=C(Nc3ccc(F)cc3)C2=O)cc1 | > 100 µM
CCCCCCCC(=O)C1=C(Nc2ccccc2)C(=O)C=C(Nc2ccccc2)C1=O | > 100 µM
O=C1C=C(Nc2ccccc2)C(=O)C(C(=O)c2ccco2)=C1Nc1ccccc1 | 61.7 µM
COc1cc(NC2=CC(=O)C(Nc3cc(OC)c(OC)c(OC)c3)=C(C(=O)c3ccccc3)C2=O)cc(OC)c1OC | > 100 µM
CCCC(=O)C1=C(Nc2ccccc2)C(=O)C=C(Nc2ccccc2)C1=O | > 100 µM
O=C1C=C(Nc2ccccc2)C(=O)C(C(=O)c2cccs2)=C1Nc1ccccc1 | > 100 µM
CCCCCC(=O)C1=C(Nc2ccccc2)C(=O)C=C(Nc2ccccc2)C1=O | > 100 µM
COc1ccc(C(=O)C2=C(Nc3ccccc3)C(=O)C=C(Nc3ccccc3)C2=O)cc1OC | > 100 µM
O=C1C=C(Nc2ccc(F)cc2)C(=O)C(C(=O)c2cccs2)=C1Nc1ccc(F)cc1 | > 100 µM
COc1cc(NC2=CC(=O)C(Nc3cc(OC)c(OC)c(OC)c3)=C(C(=O)c3cccs3)C2=O)cc(OC)c1OC | 30.7 µM
O=C1C=C(Nc2ccc(F)cc2)C(=O)C(C(=O)c2ccccc2)=C1Nc1ccc(F)cc1 | > 100 µM
COc1cc(C(=O)C2=C(Nc3ccc(F)cc3)C(=O)C=C(Nc3ccc(F)cc3)C2=O)ccc1O | > 100 µM
COc1cc(C(=O)C2=C(Nc3cc(OC)c(OC)c(OC)c3)C(=O)C=C(Nc3cc(OC)c(OC)c(OC)c3)C2=O)ccc1O | 28.3 µM
COc1cc(NC2=CC(=O)C(Nc3cc(OC)c(OC)c(OC)c3)=C(C(=O)c3ccco3)C2=O)cc(OC)c1OC | 33 µM

###

# assay-notes: Half-wave potentials by cyclic voltammetry in acetonitrile
# Format: physicochemical
# measurement-parameters: second one-electron reduction, rt, Pt electrode, vs non-aqueous Ag/Ag+, given as negative of potential
So basically: −E^II 1/2 at 1000 mV or higher? That is yes (1). Lower than 1000 mV? That is no (0).

CCCCCCCC(=O)C1=C(Nc2ccccc2)C(=O)C=C(Nc2ccccc2)C1=O | no (0)
COc1cc(C(=O)C2=C(Nc3ccc(F)cc3)C(=O)C=C(Nc3ccc(F)cc3)C2=O)ccc1O | no (0)
CCCCCC(=O)C1=C(Nc2ccccc2)C(=O)C=C(Nc2ccccc2)C1=O | yes (1)

###

# assay-notes: Half-wave potentials by cyclic voltammetry in acetonitrile
# Format: physicochemical
# measurement-parameters: second one-electron reduction, rt, Pt electrode, vs non-aqueous Ag/Ag+, given as negative of potential
Let's look at some molecules and their measured −E^II 1/2.
readout-name: −E^II 1/2 (mV)

O=C1C=C(Nc2ccccc2)C(=O)C(C(=O)c2cccs2)=C1Nc1ccccc1 | 1030
O=C1C=C(Nc2ccc(F)cc2)C(=O)C(C(=O)c2cccs2)=C1Nc1ccc(F)cc1 | 980
COc1cc(C(=O)C2=C(Nc3cc(OC)c(OC)c(OC)c3)C(=O)C=C(Nc3cc(OC)c(OC)c(OC)c3)C2=O)ccc1O | 1010

Sourced from paper PMC6539005
